test system: Staphylococcus aureus; test: Antimicrobial activity against […] Staphylococcus aureus USA300 measured after 24 hrs by CLSI protocol based microdilution method; format: functional
measured.quantity: log10(MIC) (log10 of the value in µg/mL)

molecule	test.target	log10(MIC)
Cc1cccc(N2CC(c3nc4ccccc4n3C)CC2=O)c1Br (centres undefined)	Staphylococcus aureus	1.20
Cn1c(C2CC(=O)N(c3cccc(Br)c3O)C2)nc2ccccc21 (centres undefined)	Staphylococcus aureus	1.20
Cn1c(C2CC(=O)N(c3cccc(Cl)c3Br)C2)nc2ccccc21 (centres undefined)	Staphylococcus aureus	0.78
Cc1c(CN(C)C(=O)/C=C/c2cnc3c(c2)CCC(=O)N3)oc2ccccc12 [AFN-1252]	Staphylococcus aureus	-1.80
Cc1c(Br)cccc1N1C[C@@H](c2nc3ccccc3n2C)CC1=O	Staphylococcus aureus	-0.30
Cc1cccc(N2CC(c3nc4ccccc4n3C)CC2=O)c1Cl (centres undefined)	Staphylococcus aureus	1.20
CC(=O)NC[C@H]1CN(c2ccc(N3CCOCC3)c(F)c2)C(=O)O1 [LINEZOLID]	Staphylococcus aureus	0.00
Cn1c(C2CC(=O)N(c3cccc(F)c3F)C2)nc2ccccc21 (centres undefined)	Staphylococcus aureus	1.20

###

Molecular target: Enoyl-[acyl-carrier-protein] reductase [NADPH] FabI (Staphylococcus aureus) (UniProt Q6GI75)
Sequence (whole entry): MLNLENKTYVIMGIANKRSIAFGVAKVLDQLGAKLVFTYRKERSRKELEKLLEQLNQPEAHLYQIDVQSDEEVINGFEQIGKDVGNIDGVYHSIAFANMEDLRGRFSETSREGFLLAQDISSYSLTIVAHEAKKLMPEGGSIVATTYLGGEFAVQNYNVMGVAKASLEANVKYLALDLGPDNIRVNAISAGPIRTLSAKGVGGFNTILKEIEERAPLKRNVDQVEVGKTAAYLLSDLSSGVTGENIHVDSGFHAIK
Test: Inhibition of N-terminal his 6 tagged Staphylococcus aureus Fabi (1 to […] residues) expressed in Escherichia coli BL21 at 1 uM incubated for 30 mins in presence of NADPH by fluorescence based microplate reader analysis relative to control
Hi, to clarify the labels: T covers inhibition from 9% upward, F covers anything below 9%.

molecule	class.label
Cn1c(C2CC(=O)N(c3cccc(Cl)c3)C2)nc2ccccc21 (stereo unspecified)	T
Cc1ccccc1N1CC(c2nc3ccccc3n2C)CC1=O (stereo unspecified)	T
Cn1c(CCC(=O)NCCNC(=O)Cc2ccccc2)nc2ccccc21	F
COc1cccc(N2CC(c3nc4ccccc4n3C)CC2=O)c1OC (stereo unspecified)	F
Cc1c(Br)cccc1N1CC(c2nc3ccccc3n2C(C)C)CC1=O (stereo unspecified)	T
Cn1c(C2CC(=O)N(c3cccc(Br)c3F)C2)nc2ccccc21 (stereo unspecified)	T
Cc1cccc(N2CC(c3nc4ccccc4n3C)CC2=O)c1Br (stereo unspecified)	T
Cc1cccc(N2CC(c3nc4ccccc4n3C)CC2=O)c1 (stereo unspecified)	F
CCCn1c(C2CC(=O)N(c3cccc(Br)c3C)C2)nc2ccccc21 (stereo unspecified)	T
Cn1c(C2CC(=O)N(c3cccc(Cl)c3F)C2)nc2ccccc21 (stereo unspecified)	T
Cn1c(C(=O)NCCC(=O)NCc2ccccc2)nc2ccccc21	F
O=C1CC(c2nc3ccccc3[nH]2)CN1c1cccc(Cl)c1F (stereo unspecified)	F
Cn1c(CCC(=O)NCCC(=O)NCc2ccccc2)nc2ccccc21	F
Cc1cccc(NC(=O)c2nc3ccccc3n2C)c1C	F
Cn1ccc2c(N3CC(c4nc5ccccc5n4C)CC3=O)cccc21 (stereo unspecified)	T
